# measured_on: T1, human CD71 extracellular domain (human, UniProt P02786 89-760, biotinylated)
# T1 construct: also called hCD71; CD71-ECD
# experiment: primary ELISA; also: test concentration or dose not given here
measured_property: RLU (RLU)

CD71-binding FN3 domain of SEQ ID NO: 536 (designed binder) MLPAPKNLVVSRVTEDSARLSWTAPDAAFDSFDIGYTETVSFGEAIVLTVPGSERSYDLTGLKPGTEYIVKILGVKGGFASFPLSAIFTT ... 2.99e+06
CD71-binding FN3 domain of SEQ ID NO: 529 (designed binder) MLPAPKNLVVSRVTEDSARLSWTAPDAAFDSFFIGYLEPQPPGEAIDLYVPGSERSYDLTGLKPGTEYNVTIQGVKGGFPSLPLQAHFTT ... 4.13e+06
CD71-binding FN3 domain of SEQ ID NO: 524 (designed binder) MLPAPKNLVVSRVTEDSARLSWTAPDAAFDSFFIGYLEPQPPGEAIHLWVPGSERSYDLTGLKPGTEYNVTIQGVKGGFPSMPLSAIFTT ... 3.22e+06
CD71-binding FN3 domain of SEQ ID NO: 540 (designed binder) MLPAPKNLVVSRVTEDSARLSWTAPDAAFDSFYIAYAEPRPDGEAIILVVPGSERSYDLTGLKPGTEYSVLIHGVKGGLLSSPLDAGFTT ... 3.79e+06
